Target: human plasmin (Homo sapiens)
Construct: enzymatic activities of trypsin, plasmin and plasma kallikrein; purchased Enzyme Research Hplas
Sequence (P00747 581-810 limits assumed): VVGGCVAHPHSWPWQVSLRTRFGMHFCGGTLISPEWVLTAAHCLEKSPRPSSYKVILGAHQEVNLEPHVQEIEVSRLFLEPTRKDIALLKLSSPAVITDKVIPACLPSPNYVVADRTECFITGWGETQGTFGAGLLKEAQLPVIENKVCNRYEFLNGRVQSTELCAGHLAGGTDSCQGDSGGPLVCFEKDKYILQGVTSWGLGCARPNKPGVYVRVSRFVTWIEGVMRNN
Sequence (P00747 97-580 partner limits assumed): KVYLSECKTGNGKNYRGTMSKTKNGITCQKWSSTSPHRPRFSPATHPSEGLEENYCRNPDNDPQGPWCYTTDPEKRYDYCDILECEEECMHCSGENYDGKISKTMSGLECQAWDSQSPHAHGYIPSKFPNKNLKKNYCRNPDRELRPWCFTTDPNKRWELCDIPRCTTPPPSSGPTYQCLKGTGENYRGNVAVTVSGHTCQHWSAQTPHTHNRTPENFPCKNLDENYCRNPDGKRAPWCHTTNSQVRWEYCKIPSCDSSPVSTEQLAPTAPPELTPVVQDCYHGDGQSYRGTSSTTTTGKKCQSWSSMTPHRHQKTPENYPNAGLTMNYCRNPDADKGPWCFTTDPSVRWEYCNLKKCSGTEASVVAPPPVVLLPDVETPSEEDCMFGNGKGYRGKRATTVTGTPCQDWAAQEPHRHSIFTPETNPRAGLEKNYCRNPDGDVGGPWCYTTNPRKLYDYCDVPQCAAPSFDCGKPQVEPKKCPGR
Assay: Inhibition of plasmin, fluorogenic substrate assay
Assay type: biochemical
Positions of bridges follow the written chain, without caps; N, C: chain ends. No end group written: not given here.
Property Measured: pIC50
For clarity, pIC50 is expressed as the negative log10 of concentration in mol/L.

Q: // returns reported pIC50 for input MHSFCAFKAETGPCRAAMKRFFFNIFTRQCEEFIYGGCEGNQNRFESLEECKKMCTRD (disulfide 5-55, 14-38, 30-51) [SEQ ID NO: 10]
Ans: 7.57

Q: // returns reported pIC50 for input MHSFCAFKADDGPCRAAMKRFFFNIFTRQCEEFIYGGCEGNQNRFESLEECKKMCTRD (disulfide 5-55, 14-38, 30-51) [SEQ ID NO: 7]
Ans: 6.71

Q: // returns reported pIC50 for input MHSFCAFKADDGPCRAAHPRWWFNIFTRQCEEFIYGGCEGNQNRFESLEECKKMCTRD (disulfide 5-55, 14-38, 30-51) [SEQ ID NO: 8]
Ans: 6.57

Q: // returns reported pIC50 for input MHSFCAFKADDGPCKAIMKRFWFNIFTRQCEEFIYGGCEGNQNRFESLEECKKMCTRD (disulfide 5-55, 14-38, 30-51) [SEQ ID NO: 9]
Ans: 6.30

Q: // returns reported pIC50 for input MHSFCAFKAETGPCRAAHPRWFFNIFTRQCEEFIYGGCEGNQNRFESLEECKKMCTRD (disulfide 5-55, 14-38, 30-51) [SEQ ID NO: 4]
Ans: 7.49

Q: // returns reported pIC50 for input EAMHSFCAFKAVTGPCRAAMKRFWFNIFTRQCEEFIYGGCEGNQNRFESLEECKKMCTRD (disulfide 7-57, 16-40, 32-53) [SEQ ID NO: 31]
Ans: 7.32

Q: // returns reported pIC50 for input EAMHSFCAFKAVTGPCRASFPRWFFNIFTRQCEEFIYGGCEGNQNRFESLEECKKMCTRD (disulfide 7-57, 16-40, 32-53) [SEQ ID NO: 29]
Ans: 7.72

Q: // returns reported pIC50 for input EAMHSFCAFKAYTGPCRAAIIRFFFNIFTRQCEEFIYGGCEGNQNRFESLEECKKMCTRD (disulfide 7-57, 16-40, 32-53) [SEQ ID NO: 28]
Ans: 7.11

Q: // returns reported pIC50 for input EAMHSFCAFKASTGPCKARIIRFFFNIFTRQCEEFIYGGCEGNQNRFESLEECKKMCTRD (disulfide 7-57, 16-40, 32-53) [SEQ ID NO: 30]
Ans: 7.25

Q: // returns reported pIC50 for input EAMHSFCAFKAYTGPCKAAIIRFFFNIFTRQCEEFIYGGCEGNQNRFESLEECKKMCTRD (disulfide 7-57, 16-40, 32-53) [SEQ ID NO: 26]
Ans: 7.08

Q: // returns reported pIC50 for input EAMHSFCAFKAETGPCRAAHPRWWFNIFTRQCEEFIYGGCEGNQNRFESLEECKKMCTRD (disulfide 7-57, 16-40, 32-53) [SEQ ID NO: 20]
Ans: 7.62

Q: // returns reported pIC50 for input EAMHSFCAFKAETGPCRAAHPRWFFNIFTRQCEEFIYGGCEGNQNRFESLEECKKMCTRD (disulfide 7-57, 16-40, 32-53) [SEQ ID NO: 19]
Ans: 7.52

Q: // returns reported pIC50 for input EAMHSFCAFKAYTGPCKARIIRFFFNIFTRQCEEFIYGGCEGNQNRFESLEECKKMCTRD (disulfide 7-57, 16-40, 32-53) [SEQ ID NO: 25]
Ans: 7.28

Q: // returns reported pIC50 for input EAMHSFCAFKAVTGPCKARIIRFFFNIFTRQCEEFIYGGCEGNQNRFESLEECKKMCTRD (disulfide 7-57, 16-40, 32-53) [SEQ ID NO: 18]
Ans: 7.33
